- TARGET: human 5-HT1A receptor (Homo sapiens)
- Construct: expressed in transfected cells; host or cells: CHO cells (stably transfected)
- Sequence (P08908 1-422): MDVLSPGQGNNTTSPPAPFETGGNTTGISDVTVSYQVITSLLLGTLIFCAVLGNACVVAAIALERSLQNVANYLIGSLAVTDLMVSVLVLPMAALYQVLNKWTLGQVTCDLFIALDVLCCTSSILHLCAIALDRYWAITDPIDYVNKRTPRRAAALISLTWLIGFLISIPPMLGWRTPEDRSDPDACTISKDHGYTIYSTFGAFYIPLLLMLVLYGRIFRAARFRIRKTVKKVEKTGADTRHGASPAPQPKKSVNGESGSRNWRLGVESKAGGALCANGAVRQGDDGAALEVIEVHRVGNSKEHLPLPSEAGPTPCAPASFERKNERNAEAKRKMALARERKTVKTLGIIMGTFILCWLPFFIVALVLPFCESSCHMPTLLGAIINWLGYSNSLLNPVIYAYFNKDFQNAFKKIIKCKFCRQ
- ASSAY_COMMENT: Antagonist activity: antagonism of 8-OHDPAT inhibition of forskolin-stimulated cAMP accumulation in transfected CHO cells
- Format: cell-based
- TEST_CONDITIONS: CHO cells with human 5-HT1A receptor
MEASUREMENT_TYPE: IC50 (nM)

// known answers, use as guide
CN(C(=O)C1CCCCC1)[C@H](CC1CCCCC1)CN1CCN(c2cccc3c2OCCO3)CC1 = 4.6
COc1ccccc1C1CCN(C[C@@H](CC2CCCCC2)N(C)C(=O)C2CCCCC2)CC1 = 91.5

[A] CN(C(=O)C1(C)CCCCC1)[C@H](CC1CCCCC1)CN1CCN(c2cccc3c2OCCO3)CC1
[B] COc1ccccc1C1CCN(C[C@@H](CC2CCCCC2)NC(=O)C2(C)CCCCC2)CC1
Exercise: # compare IC50 for A vs B ; return the one with the smaller value // output: label of the selected item
Key: A

[a] COc1ccccc1N1CCN(C[C@@H](CC2CCCCC2)N(C)C(=O)C2CCCCC2)CC1
[b] COc1ccccc1N1CCN(C[C@@H](CC2CCCCC2)N(C)C(=O)C2(C)CCCCC2)CC1
[c] COc1ccccc1C1CCN(C[C@@H](CC2CCCCC2)N(C)C(=O)C2(C)CCCCC2)CC1
Exercise: Please produce an ascending ranking of these molecules based on IC50. To answer, write out the labels according to the requested order.
Key: a, b, c

Values from patent US6518272B2
